Item-by-item account of growth rescue
Assay: restored growth of temperature-sensitive Mot1-301 yeast – S. cerevisiae, ATP luminescence, 38.5C, SUMOylation pathway inhibitor project, primary screen (AID 2716);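 note: OY570 slx delta 5 strain wells were the positive control but not used for scaling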
Conditions: S. cerevisiae Mot1-301 growth rescue, at 18.8 µM, stronger effect = higher value, percent above DMSO median, 100 means doubled
Among all 320,000 compounds or so, about 3,300 (1%) were called active. For the sample, actives were picked, then their nearest neighbours and some compounds at random.
Give just the number in %; leave the unit off.

Sample answers from the record:
1. Cc1cc(C)cc(Oc2c(C(F)(F)F)oc3cc(OCC(=O)O)ccc3c2=O)c1 :: -7.69
2. CCC(CC)c1nnc(NC(=O)C2CCN(C(=O)c3ccco3)CC2)s1 :: -12.8
3. Cc1ccc(NC(=O)[C@H](Cc2ccccc2)NC(=O)C2CCNCC2)cc1 :: 2.72
4. CC(=O)N(c1ccc2oc(=O)sc2c1)S(=O)(=O)c1ccc(C)cc1 :: 1.25
5. Cc1cccc(OCC(=O)NCCNC(=O)c2cccnc2)c1 :: 220

Request: // query growth rescue value for entry CCc1cc(C(=O)Nc2nnc(C3CC3)s2)sc1C
Response: -5.84

Request: Given the compound O=C1C2N=NN(CC(=O)N3N=C(c4cccc5ccccc45)CC3c3ccccc3)C2C(=O)N1c1ccccc1 (stereo not given) , what is its reported growth rescue?
Response: -6.23

Request: Fill blank: measured growth rescue of the compound CC(C)CCNc1nc(N2CCCC2)c2c(c1C#N)CCN(C)C2 is ____.
Response: -30.6

Request: Value lookup for growth rescue; key = Cc1sc2nc(CSCC(=O)Nc3c(Cl)cccc3Cl)[nH]c(=O)c2c1C
Response: 2.95

Request: Fill blank: measured growth rescue of the compound CC1(C)Cc2c(sc(NC(=O)C(=O)NCC3CCCO3)c2C(=O)O)CO1 (stereo not given) is ____.
Response: -46.3

Request: Fill in: growth rescue of Cc1nc2ccccc2n1C(=O)N1CCOCC1 is ___
Response: -12.1

Request: Param item = O=C(NCC1CCCO1)c1cc2c(s1)CCCC2 (stereo not given) ; retrieve measured growth rescue.
Response: -9.49

Request: Give its growth rescue value. Item: C/C(=N\NC(=O)C1(C)CC1(Br)Br)c1ccc(C)cc1C (stereo not given)
Response: 8.98

Request: I am curious: what growth rescue value has been reported for Cc1ccc2c(c1)C(O)(CC(=O)c1cccnc1)C(=O)N2 (stereo not given) ?
Response: 1220

Request: So what's the measured growth rescue for this one? CCOc1ccc(N(CC)S(=O)(=O)c2cccc3nsnc23)cc1
Response: 487

Request: Endpoint output: growth rescue of COc1ccc([N+](=O)[O-])cc1N(CC(=O)Nc1ccccc1C(=O)N1CCOCC1)S(C)(=O)=O . Value?
Response: -10.4

Request: Item under review: O=C(NCCCN1CCOCC1)c1cn(-c2ccccc2)nc1-c1ccc(F)cc1 . Reported growth rescue?
Response: -27.9

Request: Which growth rescue is reported for this compound? CCOC(=O)c1c(C)nn(-c2ncccc2NC(=O)CCC(=O)O)c1C
Response: -17.7

Request: Quick check: growth rescue of CCc1cc2c(=O)c(-c3ccon3)c(N)oc2cc1OC ?
Response: -11.8

Request: Sample CCCCNS(=O)(=O)c1ccc(S(=O)(=O)n2cnc3ccccc32)cc1 — what was its growth rescue?
Response: -2.08

Request: Look at this compound and give its reported growth rescue. N/C(=N\OC(=O)Nc1ccccc1)c1ccno1
Response: 4.96

Request: I have this compound here, CC(C)Cc1nc(Cl)c(C#N)c2c1CCC2 , and I need its recorded growth rescue.
Response: -9.85

Request: Could you tell me which growth rescue is on file for Cn1c(=O)c2c(ncn2CCc2ccccc2)n(C)c1=O ?
Response: 43.8

Request: Any idea what growth rescue was measured for Cc1ccc(OCC(=O)NC(C)c2ccccc2)cc1C (stereo not given) ?
Response: -6.93

Request: Looking for the measured growth rescue of Cc1ccc(S(=O)(=O)NC2CCCCCC2)cc1 , can you help?
Response: 297
